- targetOrTestSystem: human TGR5 (Homo sapiens, UniProt Q8TDU6)
- Construct: expressed in transfected cells; host or cells: HEK293
- Sequence (Q8TDU6 whole entry): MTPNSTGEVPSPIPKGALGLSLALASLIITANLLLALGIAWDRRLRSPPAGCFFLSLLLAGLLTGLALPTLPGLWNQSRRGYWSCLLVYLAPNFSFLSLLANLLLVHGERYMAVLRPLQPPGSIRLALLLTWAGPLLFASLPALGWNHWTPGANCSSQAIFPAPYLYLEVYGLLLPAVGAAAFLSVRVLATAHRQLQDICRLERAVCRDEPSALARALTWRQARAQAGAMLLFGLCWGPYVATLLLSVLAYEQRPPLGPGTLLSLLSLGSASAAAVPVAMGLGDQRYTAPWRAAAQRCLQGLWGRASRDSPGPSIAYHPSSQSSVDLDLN
- assayRemarks: Cell-based TGR5 assay (cAMP generation, HTRF)
- conditionSet: HEK293 cells stably transfected with human TGR5; cAMP by HTRF; 30 minutes at 37° C.; read-out: pEC50 Human TGR5 (converted)
metric: EC50

Record excerpt, results attached:
* CN(CC(=O)O)CC(=O)N(CCCCc1cc(Cl)c(COC2(c3cnccc3-c3ccccc3OC3CC3)CC2)cc1Cl)C[C@H](O)[C@@H](O)[C@H](O)[C@H](O)CO | 126 to 1000 nM
* COCCCN(C[C@H](O)[C@@H](O)[C@H](O)[C@H](O)CO)C(=O)CCCSc1ccc(Cl)c(COC2(c3cnccc3-c3ccccc3OC3CC3)CC2)c1 | 126 to 1000 nM
* CN(C)C(=O)CCN(C[C@H](O)[C@@H](O)[C@H](O)[C@H](O)CO)C(=O)CCCCc1cc(Cl)c(COC2(c3cnccc3-c3ccccc3OC3CC3)CC2)cc1Cl | < 100 nM
* O=C(CCCSc1ccc(Cl)c(COC2(c3cnccc3-c3ccccc3OC3CC3)CC2)c1)NC[C@H](O)[C@@H](O)[C@H](O)[C@H](O)CO | < 100 nM

Form field: reported EC50 of O=C(NCCCCCSc1ccc(Cl)c(COC2(c3cnccc3-c3ccccc3OC3CC3)CC2)c1)N[C@H]1CC[C@H](NC(=O)NC[C@H](O)[C@@H](O)[C@H](O)[C@H](O)CO)CC1
< 100 nM

Every entry's value here was drawn from patent US12084472B2.
